- measured.on: hNav1.1 (Homo sapiens, UniProt P35498)
- Construct: host or cells: Xenopus oocytes (cRNA injection)
- experiment.summary: Two-electrode voltage-clamp recording from Xenopus oocytes expressing hNav1.1 with β1
- Type: cell-based
- condition: 100 μM drug, Xenopus oocytes, DMSO 1% or less, at least one hour incubation; ** = p<0.005 vs DMSO
measurement.label: hNav1.1 Activation (V1/2) (mV)
Give bare numbers, in mV.

NC(=O)c1nnn(Cc2ccc(F)cc2)c1N [Compound D] = −32.5
NC(=O)c1cn(Cc2c(F)cccc2F)nn1 [Rufinamide, reference compound] = −30.6
NC(=O)c1nnn(Cc2cccc(F)c2)c1N [Compound A] = −30.8
Cc1c(C(N)=O)nnn1Cc1ccccc1 [Compound B] = −27.4

Summary for this compound, OCc1cn(Cc2cccc(F)c2)nn1 [Compound C] : hNav1.1 Activation (V1/2) is −38.4

----------
- measured.on: hNav1.1 (Homo sapiens, UniProt P35498)
- Construct: host or cells: Xenopus oocytes (cRNA injection)
- experiment.summary: Two-electrode voltage-clamp recording from Xenopus oocytes expressing hNav1.1 with β1
- Assay type: cell-based
- condition: 100 μM drug, Xenopus oocytes, DMSO 1% or less
measurement.label: hNav1.1 Inactivation (V1/2), steady-state inactivation (mV)
One number for each entry, in mV.

Below: 4 molecules and their reported hNav1.1 Inactivation (V1/2), steady-state inactivation.
OCc1cn(Cc2cccc(F)c2)nn1 [Compound C] = −49.2
NC(=O)c1cn(Cc2c(F)cccc2F)nn1 [Rufinamide, reference compound] = −47.8
NC(=O)c1nnn(Cc2ccc(F)cc2)c1N [Compound D] = −49.8
NC(=O)c1nnn(Cc2cccc(F)c2)c1N [Compound A] = −50.5

Sample Cc1c(C(N)=O)nnn1Cc1ccccc1 [Compound B] ; hNav1.1 Inactivation (V1/2), steady-state inactivation observed: −49.4
